- System: Streptococcus pneumoniae (ATCC6305)
- TEST: Microtitre plate assay, IC90 determination, SPN 6305
- Type: cell-based
- CONDITION NOTES: Streptococcus pneumoniae, ATCC6305, 24 h, 90% inhibitory concentration for bacterial growth, 37° C., resazurin fluorescence, read-out: IC90 (μg/ml) SPN 6305
Listed here: items and their measured IC90.

IC90 recorded for this compound, COc1nc2ccc(Br)cc2cc1C(c1ccccc1)C(O)(CCN(C)C)c1cc(F)ccc1F (stereo not shown) , is 13.6 µg/mL

IC90 recorded for this compound, CCOc1nc2ccc(Br)cc2cc1C(c1ccccc1)C(O)(CCN(C)C)c1ccccc1 (stereo not shown) , is 13 µg/mL

IC90 recorded for this compound, COc1nc2ccc(Br)cc2cc1C(c1ccccc1)C(O)(CCN1CCCC1)c1ccc2ccccc2c1 (stereo not shown) , is 26 µg/mL

IC90 recorded for this compound, COc1nc2ccc(Br)cc2cc1C(c1ccccc1)C(O)(CCN(C)C)c1ccsc1 (stereo not shown) , is 10.2 µg/mL

IC90 recorded for this compound, COc1nc2ccc(Br)cc2cc1C(c1ccccc1)C(O)(CCN(C)C)c1ccc2c3c(cccc13)CC2 (stereo not shown) , is 11.6 µg/mL

IC90 recorded for this compound, COc1nc2ccc(Br)cc2cc1C(c1ccccc1)C(O)(CCN1CCCCC1)c1ccccc1 (stereo not shown) , is 13.7 µg/mL

IC90 recorded for this compound, COc1nc2ccc(Br)cc2cc1C(c1ccccc1)C(O)(CCN(C)C)c1ccc2c(c1)OCCO2 (stereo not shown) , is 14.2 µg/mL

Every entry's value here was drawn from patent US7709498B2.
